tested on: MS2 coat protein; experiment: apparent Kd, MS2 coat protein; higher = weaker binding; RNA-MaP array; conditions: ligand present: flavin mononucleotide; designed as: OFF switch for flavin mononucleotide
Threshold check on apparent Kd: at or above 40 nM gives 1, strictly below gives 0.

The examples below pair each entry with its known result.
SEQUENCE_CODE | TEST_SYSTEM | CLASS_LABEL
UUAUGUCGGUAGGAUAUUAGACGUGGUUAUACGUAAGAAGGACCAACAUGAGGAUCACCCAUGUGAGAUAGUUC | MS2 coat protein | 0
GAAAACGAUCCCAAUACAUGAGGAUCACCCAUGUGGUGCAGUCAGGAUAUCACUACACCAAAACUUGAGAAGGGACACAUCGCC | MS2 coat protein | 1
GAUAAAGUAGGAUAUACAUGAGGAUCACCCAUGUAGAGAGGAGAGCGUGCGAGAACCAGUAGAAGGACUAAACA | MS2 coat protein | 0
AGGAGCGGAAUAGGAUAUUGUAGAUAUAUCAAACAAGAAGGAUUAGCUAACAUGAGGAUCACCCAUGUGGGAUCAAACUCACUC | MS2 coat protein | 1

Is the recorded value of apparent Kd equal to or greater than 40 nM for this sequence? AAAAUAGCAGGAUAUACAUGAGGAUCACCCAUGUCAAGACAGCACGGUGCAAGGUAGGGUAGAAGGGCUAAUUG 0

Record AUUCCACAUGAGGAUCACCCAUGUUCUGCUCUGCAUGGAAACAGAAGGAUUCGCGUCAGGUCGAAAUAGGAUAUGUUGUCAAAG ; criterion: apparent Kd no lower than 40 nM. Met? 0

Is apparent Kd for GUCUAAGGCCAAGGAUAUUGCGUACUUGCGGAUGAUAGUAGAAAACAUGAGGAUCACCCAUGUCACAAGAAGGUGGUCCUGGGA at or above 40 nM? 1

Quick check, apparent Kd >= 40 nM? GUGGCUUCGGUGAGGAUAUGUCCGAUAAAACUGAGACAGAAGGCACAUGAGGAUCACCCAUGUAGCGUUGAUUC 1

Textbook exercise: given the entry CACGCCAUAGGAUAUACAUGAGGAUCACCCAUGUGGUGGUAGCAGCCAUAACGGUACAGUAGAAGGAUGUGCGA , state whether its apparent Kd is greater than or equal to 40 nM. 1

Please check the record UCGCCGCUGGAGACAUGAGGAUCACCCAUGUGGUCUUUCGUAAGAAGGUGCCUAUAGAACUUUUGCAAGGAUAUUACGCCGGAG and state if its apparent Kd is at or above 40 nM. 1

Has ACCAUGUGACAGGAUAUGUUUCUCUCAAUAAACACAGAAGGGUCUACAUGAGGAUCACCCAUGUGUAUUCUACC a recorded apparent Kd greater than or equal to 40 nM? 1

Determine whether measured apparent Kd meets or exceeds 40 nM for CCUUGUGUGAAGGAUAUAGGUUUAUGUUUCUGUCUAGAAGGUCACACAUGAGGAUCACCCAUGUAUAUCCUAGA 1

hey, is apparent Kd for this one >= 40 nM? AAUGGAGUCGAGAAGGCAGCGACCCACUAAACCUGAGGAUAUCGUCUCCGAAAAUGGGUGGGUGUACAUGAGGAUCACCCAUGU 1
